assay: qHTS assay to identify small molecule antagonists of the farnesoid-X-receptor (FXR) signaling pathway - cell viability counter screen (AID 743221); conditions: FXR-bla HEK293T viability, CellTiter-Glo luminescence, 16 h; series mostly up to 62.6 µM; note: nearly all actives have a fitted effect of over 50% in size
Inconclusive results are not listed. Active and inactive are the calls of the source. Calls come from the whole dose curve; as a rule, active = well fitted cell-killing curve with a large enough effect in the repeat runs (not every such curve was filed as active); inconclusive = weak or mixed curves, or effect the other way; inactive = no such curve, though single readings can be large or run the other way.
Give your call using only these classes: active, inactive

{"Smiles code": "CC[C@H](C)[C@H]1O[C@]2(C=C[C@@H]1C)C[C@@H]1C[C@@H](C/C=C(\\C)[C@@H](O[C@H]3C[C@H](OC)[C@@H](O[C@H]4C[C@H](OC)[C@@H](NC)[C@H](C)O4)[C@H](C)O3)[C@@H](C)/C=C/C=C3\\CO[C@@H]4[C@H](O)C(C)=C[C@@H](C(=O)O1)[C@]34O)O2", "Qualitative label": "active"}
{"Smiles code": "CC(=O)[O][Sn]([c]1ccccc1)([c]1ccccc1)[c]1ccccc1", "Qualitative label": "active"}

Here is the next item to consider.
Recorded call for COc1c2c(cc3c1OCO3)CCN(C)C2 ? inactive

* * *

test: qHTS assay for small molecules that induce genotoxicity in human embryonic kidney cells expressing luciferase-tagged ATAD5 - cell viability (AID 651634); conditions: HEK293T ATAD5-luc cells viability, CellTiter-Fluor, 15.5 h; series mostly up to 83.3 µM; note: nearly all actives have a fitted effect of over 25% in size
Results filed as inconclusive are left out. The source made the active and inactive calls. Calls come from the whole dose curve.
Give your call using only these classes: active, inactive

Use the examples below as a reference point.
{"Molecule": "CC(Cc1ccc2c(c1)OCO2)NO (stereo unspecified)", "Qualitative label": "inactive"}
{"Molecule": "ClC1(Cl)C2(Cl)C3(Cl)C4(Cl)C(Cl)(Cl)C5(Cl)C3(Cl)C1(Cl)C5(Cl)C24Cl (stereo unspecified)", "Qualitative label": "inactive"}
{"Molecule": "ClC(Cl)C(Cl)(Cl)Cl", "Qualitative label": "inactive"}
{"Molecule": "Cc1cc2c3c(c1)C(c1ccccc1)=N[C@@H](NC(=O)c1ccncc1)C(=O)N3CC2", "Qualitative label": "inactive"}

Recorded call for CSC1=N[C@@](C)(c2ccccc2)C(=O)N1Nc1ccccc1 ? inactive

Recorded call for Nc1c(Cl)c(Cl)c(Cl)c(Cl)c1Cl ? inactive

Recorded call for CCOP(=O)(Sc1ccccc1)Sc1ccccc1 ? inactive

Recorded call for O=C(Cl)c1ccccc1F ? inactive

Recorded call for CCC[CH2][Sn]([CH2]CCC)([CH2]CCC)[O][Sn]([CH2]CCC)([CH2]CCC)[CH2]CCC ? active

Recorded call for CC(=O)[O][Pb]([c]1ccccc1)([c]1ccccc1)[c]1ccccc1 ? active

Recorded call for CCCCn1cc[n+](C)c1 (tested in a mixture with another compound) ? inactive

* * *

assay: qHTS assay to identify small molecule agonists of H2AX (AID 1224845); conditions: CHO-K1 phospho-H2AX Ser139 HTRF, 3 h; series mostly up to 154 µM; note: % is set by controls: 0 for no effect and ±100 for the full control effect
Results filed as inconclusive are left out. Activity calls are given as the source filed them. Calls follow the shape of the dose curve; as a rule, active = well fitted activation curve with a large enough effect in the signal ratio in the repeat runs (not every such curve was filed as active); inconclusive = weak or mixed curves; inactive = flat fitted curve, though single readings scatter; the % refers to the signal ratio.
Give your call using only these classes: true (1) (active), false (0) (inactive)

{"Compound": "Oc1ccc(Cl)c(Cl)c1", "Qualitative label": "false (0)"}

Recorded call for CC1=C2C[C@H]3[C@@H](CC=C4C[C@@H](O)CC[C@@]43C)[C@@H]2CC[C@]12O[C@@H]1C[C@H](C)CN[C@H]1[C@H]2C ? false (0)

Recorded call for CCOP(=S)(OCC)Oc1cc(C)nc(N(CC)CC)n1 ? false (0)

Recorded call for Cc1cnc2c(C(=O)O)c(Cl)ccc2c1 ? false (0)
